Listed next: entries and their corresponding pIC50.
- Study System: rat brain N-type calcium channel subunits (α1B+α2δ+β1b cDNA subunits) (Rattus norvegicus)
- Construct: expressed in transfected cells; host or cells: HEK 293
- Experimental Details: N-type calcium channel block, whole cell patch clamp in transfected HEK 293 cells
- Type: cell-based
- Measurement Conditions: low frequency stimulation 0.067 Hz (tonic block), holding potential −80 mV to +10 mV, 5 mM BaCl2, read-out: IC50 @ 0.067 Hz
# reply with the number alone; pIC50 is -log10 of concentration in mol/L

Example entries and their recorded answers appear below.
Compound	pIC50
O=C(CC(c1ccccc1)c1ccccc1)N1CCC(C(c2ccccc2)N2CCCCC2)CC1 (stereo not shown)	5.64
Cc1ccccc1C(CC(=O)N1CCC(CN2CC(C)NC(C)C2)CC1)c1ccccc1C (stereo not shown)	5.73

Now consider a different compound.
*Q* Returns the measured pIC50 for the input compound. Input: `CC(C)(C)N1CCN(C(=O)C2CCN(C(=O)CC(c3ccc(F)cc3)c3ccc(F)cc3)CC2)CC1`
*A* 5.36

###

Listed next: entries and their corresponding log10 IC50.
- Study System: rat brain N-type calcium channel subunits (α1B+α2δ+β1b cDNA subunits) (Rattus norvegicus, UniProt Q02294)
- Construct: expressed in transfected cells; host or cells: HEK 293
- Sequence (Q02294 whole entry): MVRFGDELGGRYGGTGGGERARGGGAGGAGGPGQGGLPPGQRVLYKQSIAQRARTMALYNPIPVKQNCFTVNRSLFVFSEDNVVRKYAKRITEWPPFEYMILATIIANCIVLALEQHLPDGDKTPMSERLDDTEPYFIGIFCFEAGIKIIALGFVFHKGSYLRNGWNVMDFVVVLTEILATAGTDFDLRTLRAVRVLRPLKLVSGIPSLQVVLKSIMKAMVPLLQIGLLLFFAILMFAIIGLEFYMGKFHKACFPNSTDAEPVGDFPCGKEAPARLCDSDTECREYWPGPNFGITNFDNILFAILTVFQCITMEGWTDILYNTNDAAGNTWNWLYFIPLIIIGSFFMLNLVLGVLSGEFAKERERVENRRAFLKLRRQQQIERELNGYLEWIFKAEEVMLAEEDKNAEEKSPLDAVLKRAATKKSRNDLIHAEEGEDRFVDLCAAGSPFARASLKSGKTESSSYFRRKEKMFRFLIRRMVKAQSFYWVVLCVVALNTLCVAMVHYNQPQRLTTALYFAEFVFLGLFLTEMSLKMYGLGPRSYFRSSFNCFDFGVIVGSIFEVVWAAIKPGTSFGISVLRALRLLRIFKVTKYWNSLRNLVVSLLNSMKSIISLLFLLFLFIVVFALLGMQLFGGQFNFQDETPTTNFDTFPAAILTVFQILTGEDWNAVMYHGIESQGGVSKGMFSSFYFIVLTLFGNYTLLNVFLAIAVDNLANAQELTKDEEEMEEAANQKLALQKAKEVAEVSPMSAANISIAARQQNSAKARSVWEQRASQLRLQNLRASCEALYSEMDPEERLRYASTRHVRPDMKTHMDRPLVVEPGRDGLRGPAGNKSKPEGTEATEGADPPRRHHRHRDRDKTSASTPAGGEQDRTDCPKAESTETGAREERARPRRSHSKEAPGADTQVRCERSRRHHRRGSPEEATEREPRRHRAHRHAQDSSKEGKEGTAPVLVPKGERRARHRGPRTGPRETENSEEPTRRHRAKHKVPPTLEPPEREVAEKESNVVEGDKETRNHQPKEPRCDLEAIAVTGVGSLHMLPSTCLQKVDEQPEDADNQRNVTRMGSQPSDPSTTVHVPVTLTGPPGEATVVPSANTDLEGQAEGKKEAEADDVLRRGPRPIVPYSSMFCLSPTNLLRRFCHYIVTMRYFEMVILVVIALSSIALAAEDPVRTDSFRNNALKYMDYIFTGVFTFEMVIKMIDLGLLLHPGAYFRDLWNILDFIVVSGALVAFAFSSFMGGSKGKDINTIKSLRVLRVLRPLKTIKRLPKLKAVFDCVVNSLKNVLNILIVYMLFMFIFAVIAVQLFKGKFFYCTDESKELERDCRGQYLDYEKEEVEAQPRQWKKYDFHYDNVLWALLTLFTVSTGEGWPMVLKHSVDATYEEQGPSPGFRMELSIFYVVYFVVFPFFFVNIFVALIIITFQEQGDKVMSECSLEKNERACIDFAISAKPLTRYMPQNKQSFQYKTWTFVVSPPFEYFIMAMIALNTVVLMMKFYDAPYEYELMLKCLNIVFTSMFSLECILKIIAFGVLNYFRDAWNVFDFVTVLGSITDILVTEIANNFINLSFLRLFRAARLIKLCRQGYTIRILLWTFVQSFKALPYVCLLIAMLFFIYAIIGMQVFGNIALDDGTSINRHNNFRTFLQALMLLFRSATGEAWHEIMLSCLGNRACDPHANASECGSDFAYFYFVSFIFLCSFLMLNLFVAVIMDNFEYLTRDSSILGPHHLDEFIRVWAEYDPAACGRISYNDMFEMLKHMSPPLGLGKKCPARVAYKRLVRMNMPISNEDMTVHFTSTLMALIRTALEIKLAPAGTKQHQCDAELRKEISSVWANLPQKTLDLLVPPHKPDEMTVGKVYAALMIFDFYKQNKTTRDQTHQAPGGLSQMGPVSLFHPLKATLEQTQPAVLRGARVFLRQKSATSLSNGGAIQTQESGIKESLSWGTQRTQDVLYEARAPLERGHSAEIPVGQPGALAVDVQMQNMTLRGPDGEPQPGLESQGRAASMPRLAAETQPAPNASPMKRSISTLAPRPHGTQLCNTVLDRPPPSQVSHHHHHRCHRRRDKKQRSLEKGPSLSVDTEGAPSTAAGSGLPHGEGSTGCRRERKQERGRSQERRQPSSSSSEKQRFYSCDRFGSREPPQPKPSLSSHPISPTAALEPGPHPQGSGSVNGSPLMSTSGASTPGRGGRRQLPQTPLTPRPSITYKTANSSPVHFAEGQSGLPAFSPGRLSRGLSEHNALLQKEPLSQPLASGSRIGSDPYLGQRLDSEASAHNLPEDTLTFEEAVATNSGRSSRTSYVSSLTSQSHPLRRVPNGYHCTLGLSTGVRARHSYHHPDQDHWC
- Sequence (P54290 25-944 partner limits assumed): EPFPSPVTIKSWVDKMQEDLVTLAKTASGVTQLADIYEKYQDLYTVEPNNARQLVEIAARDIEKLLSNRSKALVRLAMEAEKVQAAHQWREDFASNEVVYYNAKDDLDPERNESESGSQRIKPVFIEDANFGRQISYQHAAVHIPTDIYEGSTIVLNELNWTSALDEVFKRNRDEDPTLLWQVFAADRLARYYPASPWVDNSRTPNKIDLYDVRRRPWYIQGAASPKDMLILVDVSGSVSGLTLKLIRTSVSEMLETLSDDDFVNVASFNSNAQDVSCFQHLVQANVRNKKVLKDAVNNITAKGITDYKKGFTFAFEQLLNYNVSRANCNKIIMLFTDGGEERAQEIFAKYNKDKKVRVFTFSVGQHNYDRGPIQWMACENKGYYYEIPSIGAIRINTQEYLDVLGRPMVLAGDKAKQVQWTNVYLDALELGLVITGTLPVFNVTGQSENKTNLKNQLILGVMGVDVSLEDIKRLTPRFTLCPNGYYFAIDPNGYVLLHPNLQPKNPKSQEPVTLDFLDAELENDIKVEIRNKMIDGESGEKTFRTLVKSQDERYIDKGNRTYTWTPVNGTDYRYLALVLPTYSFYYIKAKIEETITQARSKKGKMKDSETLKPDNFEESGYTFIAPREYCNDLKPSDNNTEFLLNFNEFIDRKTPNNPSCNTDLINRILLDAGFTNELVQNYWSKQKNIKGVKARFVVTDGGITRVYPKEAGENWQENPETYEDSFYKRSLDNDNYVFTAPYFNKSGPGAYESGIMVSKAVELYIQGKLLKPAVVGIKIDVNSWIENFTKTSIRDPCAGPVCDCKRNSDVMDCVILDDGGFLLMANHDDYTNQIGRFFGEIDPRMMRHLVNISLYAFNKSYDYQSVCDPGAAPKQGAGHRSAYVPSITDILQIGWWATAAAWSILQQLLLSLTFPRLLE
- Sequence (P54290 945-1091 partner limits assumed): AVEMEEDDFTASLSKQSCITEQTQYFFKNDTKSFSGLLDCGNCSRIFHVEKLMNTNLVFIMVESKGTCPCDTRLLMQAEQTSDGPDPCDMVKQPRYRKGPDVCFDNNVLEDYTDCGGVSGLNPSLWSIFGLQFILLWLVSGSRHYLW
- Sequence (P54283 whole entry partner): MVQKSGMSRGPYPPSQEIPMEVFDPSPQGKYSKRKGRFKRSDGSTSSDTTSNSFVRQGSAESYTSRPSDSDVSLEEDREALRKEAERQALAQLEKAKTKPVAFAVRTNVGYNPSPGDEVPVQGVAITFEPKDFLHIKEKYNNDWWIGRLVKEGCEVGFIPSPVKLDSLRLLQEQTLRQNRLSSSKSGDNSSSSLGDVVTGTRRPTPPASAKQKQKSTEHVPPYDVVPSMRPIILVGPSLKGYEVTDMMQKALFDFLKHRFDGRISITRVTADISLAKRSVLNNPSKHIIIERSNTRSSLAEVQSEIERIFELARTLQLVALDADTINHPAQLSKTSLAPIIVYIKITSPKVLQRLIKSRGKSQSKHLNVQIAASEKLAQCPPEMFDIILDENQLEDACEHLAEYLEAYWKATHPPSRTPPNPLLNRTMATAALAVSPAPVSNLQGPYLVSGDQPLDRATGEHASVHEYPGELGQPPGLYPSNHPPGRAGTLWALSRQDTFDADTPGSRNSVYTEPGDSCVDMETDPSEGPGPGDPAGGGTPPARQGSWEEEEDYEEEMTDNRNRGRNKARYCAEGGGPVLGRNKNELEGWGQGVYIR
- Experimental Details: N-type calcium channel block, whole cell patch clamp in transfected HEK 293 cells
- Type: cell-based
- Measurement Conditions: pulse frequency 0.2 Hz (frequency dependent block), holding potential −80 mV to +10 mV, 5 mM BaCl2, read-out: IC50 @ 0.2 Hz
Hello, just confirming the data are log10 of IC50 with units of µM.

Example entries and their recorded answers appear below.
Molecule	Readout Number
CN1CCN(CC2CCN(C(=O)C[S+]([O-])C(c3ccccc3)c3ccccc3)CC2)CC1 (centres unmarked)	0.72
CN1CCN(CC2CCN(C(=O)NC(c3ccccc3)c3ccccc3)CC2)CC1	0.18
O=C(COC(c1ccccc1)c1ccccc1)N1CCC(C(c2ccccc2)N2CCCCC2)CC1 (centres unmarked)	-0.35
CN1CCN(C(c2ccccc2)C2CCN(C(=O)CC(c3ccccc3)c3ccccc3)CC2)CC1 (centres unmarked)	0.12
CC1CN(C(=O)C2(c3ccccc3)CCN(C(=O)CC(c3ccccc3)c3ccccc3)CC2)CC(C)N1 (centres unmarked)	-0.07

*Q* Returns the measured log10 IC50 for the input molecule. Input: CC1CN(CC2(c3ccccc3)CCN(C(=O)CC(c3ccccc3)c3ccccc3)CC2)CC(C)N1 (centres unmarked)
*A* -0.49

*Q* Returns the measured log10 IC50 for the input molecule. Input: O=C(C[S+]([O-])C(c1ccccc1)c1ccccc1)N1CCC(CN2CCCCC2)CC1 (centres unmarked)
*A* 0.61

*Q* Returns the measured log10 IC50 for the input molecule. Input: `CN1CCN(CC2CCN(C(=O)CC(c3ccccc3)c3ccccc3)CC2)CC1`
*A* 0.24

*Q* Returns the measured log10 IC50 for the input molecule. Input: `Cc1ccccc1C(CC(=O)N1CCC(CN2CCN(C)CC2)CC1)c1ccccc1C`
*A* 0.03

*Q* Returns the measured log10 IC50 for the input molecule. Input: `COc1ccccc1C(CC(=O)N1CCC(C(=O)N2CCN(C(C)(C)C)CC2)CC1)c1ccccc1OC`
*A* 0.43

*Q* Returns the measured log10 IC50 for the input molecule. Input: `O=C(CNC(c1ccccc1)c1ccccc1)N1CCC(CN2CCCCC2)CC1`
*A* 0.72

*Q* Returns the measured log10 IC50 for the input molecule. Input: `Cc1ccccc1C(CC(=O)N1CCC(CN2CCCCC2)(c2ccccc2)CC1)c1ccccc1C`
*A* -0.60
